Molecular target: human A3AR (Homo sapiens, UniProt P0DMS8)
Construct: expressed in transfected cells
Test: LOPAC library primary screen: single concentration (10 μM) inhibition of 25 nM CA200645 binding, PHERAstar FS
Structures can show the parent of a compound that is named as a salt.
Measured Attribute: % 25 nM CA200645 binding (%)

Molecule: N[C@@H]1CONC1=O (racemic) [DL-Cycloserine]
Reading: 97.4
//
Molecule: C[C@H](Cc1ccccc1)Nc1ncnc2c1ncn2[C@@H]1O[C@H](CO)[C@@H](O)[C@H]1O [R(-)-N6-(2-Phenylisopropyl)adenosine]
Reading: 69.2
//
Molecule: CCN(CC)CCNC(=O)c1c(C)[nH]c(/C=C2\C(=O)Nc3ccc(F)cc32)c1C [Sunitinib malate]
Reading: 97.4
//
Molecule: CC(C)(C)NC[C@H](O)COc1nsnc1N1CCOCC1.O=C(O)/C=C\C(=O)O [S(-)-Timolol maleate]
Reading: 103.3
//
Molecule: CCc1c(C)[nH]c2c1C(=O)C(CN1CCOCC1)CC2 (stereo not drawn) [Molindone hydrochloride]
Reading: 91.2
//
Molecule: COC(=O)[C@@H](N)CCCN=C(N)N[N+](=O)[O-].Cl
Reading: 109.0
//
Molecule: CN1Cc2c(N)cccc2C(c2ccccc2)C1 (stereo not drawn) [Nomifensine maleate]
Reading: 98.5
//
Molecule: CN(C)c1nc(N(C)C)nc(N(C)C)n1 [Altretamine]
Reading: 99.1
//
Molecule: CSc1nc(N)c2ncn([C@@H]3O[C@H](COP(=O)([O-])OP(=O)([O-])[O-])[C@@H](O)[C@H]3O)c2n1.O.[Na+].[Na+].[Na+]
Reading: 100.3

----------
Target: human A3AR (Homo sapiens)
Construct: expressed in transfected cells
Test: LOPAC library primary screen: single concentration (10 μM) inhibition of 25 nM CA200645 binding, PHERAstar FS
Structures can show the parent of a compound that is named as a salt.
Entries and their measured % 25 nM CA200645 binding follow.

Compound: COc1cc(CC(=O)O)ccc1O [4-Hydroxy-3-methoxyphenylacetic acid]
Study System: human A3AR (Homo sapiens)
% 25 nM CA200645 binding, %: 94.9

Compound: O=C1CCC(N2C(=O)c3ccccc3C2=O)C(=O)N1 (racemic) [(±)-Thalidomide]
Study System: human A3AR (Homo sapiens)
% 25 nM CA200645 binding, %: 108.7

Compound: CC(C)NCC(O)COc1cccc2[nH]ccc12 (stereo not drawn) [Pindolol]
Study System: human A3AR (Homo sapiens)
% 25 nM CA200645 binding, %: 84.7

Compound: O=C(O)CCC(C(=O)O)N1C(=O)c2ccccc2C1=O (stereo not drawn)
Study System: human A3AR (Homo sapiens)
% 25 nM CA200645 binding, %: 89.4

Compound: CC[C@H](CO)Nc1nc(NCc2ccccc2)c2ncn(C(C)C)c2n1
Study System: human A3AR (Homo sapiens)
% 25 nM CA200645 binding, %: 45.3

Compound: COCCOc1cc2nc[nH]c(=O)c2cc1OCCOC
Study System: human A3AR (Homo sapiens)
% 25 nM CA200645 binding, %: 88.0

Compound: O=C1NCN(c2ccccc2)C12CCN(CCCC(c1ccc(F)cc1)c1ccc(F)cc1)CC2
Study System: human A3AR (Homo sapiens)
% 25 nM CA200645 binding, %: 94.5

Compound: CCCCc1oc2ccccc2c1C(=O)c1cc(I)c(OCCN(CC)CC)c(I)c1 [Amiodarone hydrochloride]
Study System: human A3AR (Homo sapiens)
% 25 nM CA200645 binding, %: 91.5

Compound: C[N+]1(C)[C@@H]2C[C@@H](OC(=O)[C@H](CO)c3ccccc3)C[C@H]1[C@@H]1O[C@@H]12 [(-)-Scopolamine methyl bromide]
Study System: human A3AR (Homo sapiens)
% 25 nM CA200645 binding, %: 88.5

Compound: CC(=O)OC[C@H]1O[C@@H]([S-])[C@H](OC(C)=O)[C@@H](OC(C)=O)[C@@H]1OC(C)=O.CCP(CC)CC.[Au+]
Study System: human A3AR (Homo sapiens)
% 25 nM CA200645 binding, %: 82.1

Compound: N[C@H](CO)C(=O)O
Study System: human A3AR (Homo sapiens)
% 25 nM CA200645 binding, %: 100.2

Compound: NC(C(=O)O)C(O)C(=O)O (racemic) [DL-threo-beta-hydroxyaspartic acid]
Study System: human A3AR (Homo sapiens)
% 25 nM CA200645 binding, %: 97.0

Compound: NCCS(=O)O
Study System: human A3AR (Homo sapiens)
% 25 nM CA200645 binding, %: 94.6

Compound: C[N+](C)(C)CCCCCC[N+](C)(C)C.[Cl-].[Cl-] [Hexamethonium dichloride]
Study System: human A3AR (Homo sapiens)
% 25 nM CA200645 binding, %: 100.8

Compound: Br.NCc1cc(O)no1 [Muscimol hydrobromide]
Study System: human A3AR (Homo sapiens)
% 25 nM CA200645 binding, %: 107.5

Compound: CN[C@H](CC(=O)O)C(=O)O
Study System: human A3AR (Homo sapiens)
% 25 nM CA200645 binding, %: 109.5

Compound: CNC(=O)c1cc2c(cn1)[nH]c1ccccc12 [N-Methyl-beta-carboline-3-carboxamide]
Study System: human A3AR (Homo sapiens)
% 25 nM CA200645 binding, %: 84.9

Compound: Nc1ncnc2n[nH]c(Nc3ccc(F)cc3)c12
Study System: human A3AR (Homo sapiens)
% 25 nM CA200645 binding, %: 81.2

----------
Biological target: human A3AR (Homo sapiens, UniProt P0DMS8)
Construct: expressed in transfected cells
Assay: LOPAC library primary screen: single concentration (10 μM) inhibition of 25 nM CA200645 binding, PHERAstar FS
Entries annotated with measured % Total CA200645 binding
Measured Attribute: % Total CA200645 binding (%)

Molecule: Nc1nc2ccc(Cl)cc2c2nc(-c3ccco3)nn12 [CGS15943]
Reading: 30.0

Molecule: CCCn1c(=O)c2[nH]c(-c3ccc(S(=O)(=O)O)cc3)nc2n(CCC)c1=O [1,3-dipropyl-8-p-sulfophenylxanthine, reference compound]
Reading: 42.3

Molecule: Nc1nc(Cl)nc2c1ncn2[C@@H]1O[C@H](CO)[C@@H](O)[C@H]1O [2-CADO, reference compound]
Reading: 51.0

Molecule: CNC(=O)[C@H]1O[C@@H](n2cnc3c(NCc4cccc(I)c4)ncnc32)[C@H](O)[C@@H]1O [IB-MECA, reference compound]
Reading: 36.3

Molecule: Nc1nc2c(cnn2CCc2ccccc2)c2nc(-c3ccco3)nn12 [SCH 58261, reference compound]
Reading: 52.2

----------
Quick reference: % 25 nM CA200645 binding of the listed items.
Biological target: human A3AR (Homo sapiens)
Construct: expressed in transfected cells
Sequence (P0DMS8 1-318): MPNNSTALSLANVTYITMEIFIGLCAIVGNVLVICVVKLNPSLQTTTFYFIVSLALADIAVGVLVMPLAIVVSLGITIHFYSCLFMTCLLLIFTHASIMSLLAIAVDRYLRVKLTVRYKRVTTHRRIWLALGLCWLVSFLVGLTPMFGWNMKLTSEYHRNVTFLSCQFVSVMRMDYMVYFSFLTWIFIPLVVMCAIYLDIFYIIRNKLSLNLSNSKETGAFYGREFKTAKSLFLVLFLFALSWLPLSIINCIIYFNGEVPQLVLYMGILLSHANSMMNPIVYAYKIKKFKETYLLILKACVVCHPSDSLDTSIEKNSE
Experiment: LOPAC library primary screen: single concentration (10 μM) inhibition of 25 nM CA200645 binding, PHERAstar FS

Molecule: CC(C)[N+]1(C)[C@@H]2CC[C@H]1C[C@@H](OC(=O)C(CO)c1ccccc1)C2 (stereo partly shown) [Ipratropium bromide]
Study System: human A3AR (Homo sapiens)
Quantity Unit: %
% 25 nM CA200645 binding: 106.7
--
Molecule: C[n+]1cc2c3c(ccc2c2ccc4cc5c(cc4c21)OCO5)OCO3 [Sanguinarine chloride]
Study System: human A3AR (Homo sapiens)
Quantity Unit: %
% 25 nM CA200645 binding: 38.9
--
Molecule: CC(=O)[C@H]1CC[C@H]2[C@@H]3CC=C4C[C@@H](OS(=O)(=O)[O-])CC[C@]4(C)[C@H]3CC[C@]12C.[Na+] [Pregnenolone sulfate sodium]
Study System: human A3AR (Homo sapiens)
Quantity Unit: %
% 25 nM CA200645 binding: 100.9
--
Molecule: O=C(O)/C=C\C(=O)O.O=C(O)/C=C\C(=O)O.c1cc(CN2CCCCC2)cc(OCCCNc2nc3ccccc3s2)c1 [SKF 95282 dimaleate]
Study System: human A3AR (Homo sapiens)
Quantity Unit: %
% 25 nM CA200645 binding: 120.1
--
Molecule: COc1cc2ncnc(Nc3cccc(Cl)c3)c2cc1OC
Study System: human A3AR (Homo sapiens)
Quantity Unit: %
% 25 nM CA200645 binding: 90.3
--
Molecule: CNC(=O)[C@H]1O[C@@H](n2cnc3c(NCc4ccc(N)cc4)ncnc32)[C@H](O)[C@@H]1O [AB-MECA, reference compound]
Study System: human A3AR (Homo sapiens)
Quantity Unit: %
% 25 nM CA200645 binding: 48.5
--
Molecule: O=C(O)c1cc2cc(F)ccc2[nH]1
Study System: human A3AR (Homo sapiens)
Quantity Unit: %
% 25 nM CA200645 binding: 92.5
